Reference source for all entries: patent US20120277142A1

Target: TNF-α (UniProt P01375 77-233, limits assumed)
Sequence (P01375 77-233 limits assumed): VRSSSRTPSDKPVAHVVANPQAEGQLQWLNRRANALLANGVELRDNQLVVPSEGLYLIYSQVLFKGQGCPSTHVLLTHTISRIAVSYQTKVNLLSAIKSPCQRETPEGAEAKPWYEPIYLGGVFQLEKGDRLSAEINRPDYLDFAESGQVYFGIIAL
Assay: cell-based or functional assay
reported metric: Relative Activity (Cytotoxicity-neutralizing activity) (fold)
One number for each entry, in fold.

# binder, val
rows = [
    ("TNFRI171-A10 (receptor) MDSVCPQGKYIHPQNNSICCTKCHKGTYLYNDCPGPGQDTDCRECESGSFTAWENFLPACLSCSKCRKEMGQVEISSCTVDRDTVCGCRKNQYRHYWSENLFQCFNCSLCLNGTVHLSCQEKQNTVCTCHAGFFLRENECVSCSNCKKSLECTKLCLPQIENVKGTEDSGTT", 44),
]

Then there is this binder:
What does the data say about its Relative Activity (Cytotoxicity-neutralizing activity) (fold)? Entry: TNFRI171-A16 (receptor) MDSVCPQGKYIHPQNNSICCTKCHKGTYLYNDCPGPGQDTDCRECESGSFTAKENFLPACLSCSKCRKEMGQVEISSCTVDRDTVCGCRKNQYRHYWSENLFQCFNCSLCLNGTVHLSCQEKQNTVCTCHAGFFLRENECVSCSNCKKSLECTKLCLPQIENVKGTEDSGTT 139
